test system: HIV-1IIIB infected MT-4 cells; assay: Antiviral activity in HIV-1IIIB infected MT-4 cells, MTT method (Test Examples 1 and 5); type: cell-based; details: Human immunodeficiency virus 1, MT4; as in Test Example 1; Table 5; read-out: HIV Activity EC50
Reported log10 of EC50 values for a set of compounds
# values: log10(EC50), units nM

CCCN(CCC)Cc1ccc(NC(=O)c2ccc(CN(Cc3ncc[nH]3)Cc3ncccc3C)cc2)cc1 [Compound No. 53]; 0.95
CCCN(CCC)Cc1ccc(NC(=O)c2ccc(CN(Cc3ccc(C)cn3)Cc3ncc[nH]3)cc2)cc1 [Compound No. 56]; 0.48
Cn1ccnc1CN(Cc1ccc(C(=O)Nc2ccc(CNC3CCCCC3)cc2)cc1)Cc1ncc[nH]1 [Compound No. 88]; 0.70
CCCN(CCC)Cc1ccc(NC(=O)c2ccc(CN(Cc3ncc[nH]3)Cc3nccn3C)cc2)cc1 [Compound No. 49]; 0.30
CCCN(CCC)Cc1ccc(NC(=O)c2ccc(CN(Cc3ncc[nH]3)Cc3nccn3CCO)cc2)cc1 [Compound No. 94]; 0.48
CCCN(CCC)Cc1ccc(NC(=O)c2ccc(CN(Cc3nc[nH]n3)Cc3ncc[nH]3)cc2)cc1 [Compound No. 114]; 1.95
CCCN(CCC)Cc1ccc(NC(=O)c2ccc(CN(Cc3ncc[nH]3)Cc3ncc(C)cc3C)cc2)cc1 [Compound No. 101]; 0.70
CCCN(CCC)Cc1ccc(NC(=O)c2ccc(CN(Cc3ncc[nH]3)Cc3nccn3CCC)cc2)cc1 [Compound No. 92]; 1.68
CCCN(CCC)Cc1ccc(NC(=O)c2ccc(CN(Cc3nccn3C)Cc3nccn3C)cc2)cc1 [Compound No. 41]; 0.48
CCCN(CCC)Cc1ccc(NC(=O)c2ccc(CN(Cc3ncc[nH]3)Cc3nc4ccccc4[nH]3)cc2)cc1 [Compound No. 61]; 0.30

Here is the next item to consider.
I am curious: what log10 of EC50 value has been reported for CCCN(CCC)Cc1ccc(NC(=O)c2ccc(CN(Cc3ncc[nH]3)Cc3nccn3CC)cc2)cc1 [Compound No. 91] ? 1.18
